Source listed as patent US10208033B2.

- Tested on: Fusarium fujikuroi
- procedureDetails: Fungicidal (bactericidal) activity in vitro, PDA colony diameter
- Assay type: cell-based
- measurementSetup: 50 mg/kg
Parameter: Bactericidal activity (%) Fusarium fujikuroi. Scope: all listed entries.
# output: bare number, implied unit %

Worked cases, Bactericidal activity (%) Fusarium fujikuroi given:
C[C@@H]1N[C@H](C(=O)NN=Cc2ccc(Cl)c(Cl)c2)Cc2c1[nH]c1ccccc21 [Ic-7]	70.6
C[C@@H]1N[C@H](C(=O)NN=Cc2ccc3c(c2)OCO3)Cc2c1[nH]c1ccccc21 [Ic-12]	58.8
Cc1nnsc1C(=O)NNC(=O)[C@@H]1Cc2c([nH]c3ccccc23)[C@H](C)N1 [Id-2]	29.4
CCCCCC(=O)NNC(=O)[C@@H]1Cc2c([nH]c3ccccc23)[C@H](C)N1 [Id-5]	29.4

Problem: Any idea what its Bactericidal activity (%) Fusarium fujikuroi is? The molecule is Cc1nccc2c1[nH]c1cc(OC(=O)N(C)C)ccc12 [Ia-6]
Result: 21.4

====

- Tested on: tobacco mosaic virus (TMV)
- procedureDetails: Anti-TMV in vivo therapeutic effect
- Design: species or system tobacco mosaic virus (host Nicotiana tabacum L.cv.Xanthi NN)
- measurementSetup: treatment dose 500 μg/mL
Values of Relative inhibition rate (%) In vivo therapy greater than or equal to 50% map to 1; values below map to -1.

Reference set (3 entries):
C[C@@H]1N[C@H](C(=O)NN=Cc2cccs2)Cc2c1[nH]c1ccccc21	1
CCOC(=O)[C@H]1Cc2c([nH]c3ccccc23)[C@@H](C)N1	-1
C[C@@H]1N[C@H](C(=O)NN=Cc2ncc[nH]2)Cc2c1[nH]c1ccccc21	-1

Problem: Evaluate CCOC(=O)[C@@H]1Cc2c([nH]c3ccccc23)[C@H](CC)N1 : Relative inhibition rate (%) In vivo therapy at minimum 50%?
Result: -1

Problem: Record: C[C@@H]1N[C@H](C(=O)NN=Cc2ccc3c(c2)OCCO3)Cc2c1[nH]c1ccccc21
Result: -1

Problem: Record: C/C=C/C=NNC(=O)[C@@H]1Cc2c([nH]c3ccccc23)[C@H](C)N1
Result: -1

====

- Tested on: mosquito larvae
- procedureDetails: whole plant or invertebrate
- measurementSetup: in vivo
Parameter: Mosquito larvae Mortality (%). Scope: all listed entries.
Entry format: amount then unit.

Worked cases, Mosquito larvae Mortality (%) given:
O=C(O)/C=C/c1cc2c([nH]c3ccccc32)c(-c2cccnc2)n1	20%
C[C@@H]1N[C@H](C(=O)NN=Cc2cccnc2)Cc2c1[nH]c1ccccc21	40%

Problem: Any idea what its Mosquito larvae Mortality (%) is? The molecule is CCOC(=O)[C@@H]1Cc2c([nH]c3ccccc23)[C@H](c2cccnc2)N1
Result: 15%

Problem: Record: C[C@@H]1N[C@H](C(=O)NN=Cc2ccncc2)Cc2c1[nH]c1ccccc21
Result: 30%

Problem: Record: C[C@@H]1N[C@H](C(=O)NN=Cc2ccccn2)Cc2c1[nH]c1ccccc21
Result: 50%

====

- Test system: Macrophoma kawatsukai
- procedureDetails: Fungicidal (bactericidal) activity in vitro, PDA colony diameter
- Format: cell-based
- measurementSetup: 50 mg/kg
Values of Bactericidal activity (%) Macrophoma kawatsukai greater than or equal to 70% map to T; values below map to F.

Reference set (4 entries):
C[C@@H]1N[C@H](C(=O)NN=Cc2ccccn2)Cc2c1[nH]c1ccccc21	T
O=C(O)[C@@H]1Cc2c([nH]c3ccccc23)[C@H](c2cccnc2)N1	F
C[C@@H]1N[C@H](C(=O)NN=Cc2ccc(N(C)C)cc2)Cc2c1[nH]c1ccccc21	T
C[C@@H]1N[C@H](C(=O)NN=Cc2ccc(Cl)cc2)Cc2c1[nH]c1ccccc21	T

Problem: Evaluate CCOC(=O)[C@@H]1Cc2c([nH]c3ccccc23)CN1 : Bactericidal activity (%) Macrophoma kawatsukai at minimum 70%?
Result: F

Problem: Record: C[C@@H]1N[C@H](C(=O)NN=CC(C)(C)C)Cc2c1[nH]c1ccccc21
Result: F

Problem: Record: C[C@@H]1N[C@H](C(=O)NN=Cc2ncc[nH]2)Cc2c1[nH]c1ccccc21
Result: T

Problem: Record: CCOC(=O)C1Cc2c([nH]c3ccccc23)C(C)=N1 (stereo not shown)
Result: F
